Attribution: patent US8476265B2

- Study system: Adrenergic β2 (Homo sapiens)
- Construct: Adherent H292 cells are removed from tissue culture flasks by treatment with Accutase™ cell detachment solution; endogenous in cells; host or cells: H292 cells
- Protocol: Adrenergic β2 mediated cAMP production in H292 cells (AlphaScreen), concentration response
- Format: cell-based
- Experimental conditions: fraction relative to the maximum activity determined for formoterol
Measure: β2 Intrinsic Activity

Compound: CC(C)c1cc(C(=O)N2CCOC3(CCN(Cc4cccc(CCOCCC(=O)N(CCNCCc5ccc(O)c6c5OCC(=O)N6)C5CCCCC5)c4)CC3)C2)cs1 [Example 91]
Recorded value: 1.2
//
Compound: CC(C)c1nc(C(=O)N2CCOC3(CCN(CCOc4ccc(CCOCCC(=O)N(CCNCCc5ccc(O)c6c5OCC(=O)N6)C5CCCCC5)cc4)CC3)C2)cs1 [Example 51, ditrifluoroacetate]
Recorded value: 1.1
//
Compound: CC(C)c1nc(C(=O)N2CCOC3(CCN(CCOc4cccc(CCOCCC(=O)N(CCNCCc5ccc(O)c6c5OCC(=O)N6)C5CCCCC5)c4)CC3)C2)cs1 [Example 53, ditrifluoroacetate]
Recorded value: 1.0

* * *

- Study system: Adrenergic β2 (Homo sapiens, UniProt P07550)
- Construct: Adherent H292 cells are removed from tissue culture flasks by treatment with Accutase™ cell detachment solution; endogenous in cells; host or cells: H292 cells
- Sequence (P07550 whole entry): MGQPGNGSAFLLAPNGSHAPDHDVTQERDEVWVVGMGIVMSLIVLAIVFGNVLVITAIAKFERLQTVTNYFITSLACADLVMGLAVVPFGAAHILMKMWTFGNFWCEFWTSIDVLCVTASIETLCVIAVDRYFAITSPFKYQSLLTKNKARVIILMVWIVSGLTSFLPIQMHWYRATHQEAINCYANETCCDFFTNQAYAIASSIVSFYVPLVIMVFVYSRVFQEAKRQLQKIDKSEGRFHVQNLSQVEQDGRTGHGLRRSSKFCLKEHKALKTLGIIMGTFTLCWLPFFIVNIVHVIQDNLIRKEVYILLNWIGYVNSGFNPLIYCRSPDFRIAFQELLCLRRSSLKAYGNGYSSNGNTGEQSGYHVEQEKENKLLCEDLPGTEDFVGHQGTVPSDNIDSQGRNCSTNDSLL
- Protocol: Adrenergic β2 mediated cAMP production in H292 cells (AlphaScreen), concentration response
- Type: cell-based
- Experimental conditions: 60 min, 300 μM rolipram, read-out: β2 pEC50 (converted)
Measure: EC50 (nM)

P: Cc1c(CCOCCC(=O)N(CCNCCc2ccc(O)c3c2OCC(=O)N3)C2CCCC2)cccc1CN1CCC2(CC1)CN(C(=O)c1csc(C(C)C)n1)CCO2 [Example 64, ditrifluoroacetate]
Q: CC(C)c1nc(C(=O)N2CCOC3(CCN(Cc4cccc(OCCCOCCC(=O)N(CCNCCc5ccc(O)c6c5OCC(=O)N6)C5CCCCC5)c4)CC3)C2)cs1 [Example 60, ditrifluoroacetate]
R: CC(C)c1nc(C(=O)N2CCOC3(CCN(Cc4cccc(CCOCCC(=O)N(CCNCCc5ccc(O)c6c5OCC(=O)N6)C(C)C)c4F)CC3)C2)cs1 [Example 16, ditrifluoroacetate]
### Prompt List the items above again, this time ordered by increasing EC50. Please, when replying, give the labels in the order that was requested.
### Response P, Q, R

P: CC(C)CN(CCNCCc1ccc(O)c2c1OCC(=O)N2)C(=O)CCOCCc1cccc(CCN2CCC3(CC2)CN(C(=O)c2csc(C(C)C)n2)CCO3)c1 [Example 40, ditrifluoroacetate]
Q: CC(C)c1cc(C(=O)N2CCOC3(CCN(Cc4cccc(CCOCCC(=O)N(CCNCCc5ccc(O)c6c5OCC(=O)N6)C5CCCCC5)c4)CC3)C2)cs1
R: CCC(CC)c1nc(C(=O)N2CCOC3(CCN(Cc4cccc(CCOCCC(=O)N(CC)CCNCCc5ccc(O)c6c5OCC(=O)N6)c4F)CC3)C2)cs1 [Example 9, ditrifluoroacetate]
### Prompt Order each entry by recorded EC50, climbing from the minimum. # respond with the labels, arranged in the requested order
### Response P, R, Q
(P: 20 nM, R: 31.6 nM, Q: 251 nM)

1: CC(C)c1nc(C(=O)N2CCOC3(CCN(Cc4cccc(CCOCCC(=O)N(CCNCCc5ccc(O)c6c5OCC(=O)N6)C5CCCCC5)c4Cl)CC3)C2)cs1
2: CCCCN(CCNCCc1ccc(O)c2c1OCC(=O)N2)C(=O)CCOCCc1cccc(CCN2CCC3(CC2)CN(C(=O)c2csc(C(C)C)n2)CCO3)c1 [Example 34, ditrifluoroacetate]
3: Cc1cc(C(=O)N2CCOC3(CCN(Cc4cccc(CCOCCC(=O)N(CCNCCc5ccc(O)c6c5OCC(=O)N6)C5CCCCC5)c4)CC3)C2)cs1
4: CCCC[C@@H](C)N(CCNCCc1ccc(O)c2c1OCC(=O)N2)C(=O)CCOCCc1ccc(CCN2CCC3(CC2)CN(C(=O)c2csc(C)n2)CCO3)cc1 [Example 6, ditrifluoroacetate]
### Prompt Hey, quick one: sort these by EC50, low to high? Please list each label once, in the requested order.
### Response 2, 1, 4, 3

* * *

- Study system: human muscarinic acetylcholine M3 receptor (Homo sapiens, UniProt P20309)
- Construct: expressed in transfected cells; host or cells: CHO-K1 (Chinese Hamster Ovary) cell membranes
- Sequence (P20309 whole entry): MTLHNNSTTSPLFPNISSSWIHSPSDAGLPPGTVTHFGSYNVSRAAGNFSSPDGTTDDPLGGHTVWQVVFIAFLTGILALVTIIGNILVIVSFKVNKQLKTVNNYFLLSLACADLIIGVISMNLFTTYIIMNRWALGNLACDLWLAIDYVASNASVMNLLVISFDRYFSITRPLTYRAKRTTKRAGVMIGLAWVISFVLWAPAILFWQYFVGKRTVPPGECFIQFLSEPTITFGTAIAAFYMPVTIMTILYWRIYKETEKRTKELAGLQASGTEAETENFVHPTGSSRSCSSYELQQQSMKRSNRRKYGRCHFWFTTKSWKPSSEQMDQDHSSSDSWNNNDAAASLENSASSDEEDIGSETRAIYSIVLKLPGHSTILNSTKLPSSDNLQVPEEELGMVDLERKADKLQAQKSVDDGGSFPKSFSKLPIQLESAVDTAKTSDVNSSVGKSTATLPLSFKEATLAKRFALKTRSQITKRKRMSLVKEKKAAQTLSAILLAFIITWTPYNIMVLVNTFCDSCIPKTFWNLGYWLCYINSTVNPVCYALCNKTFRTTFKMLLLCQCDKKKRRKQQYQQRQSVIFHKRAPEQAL
- Protocol: Muscarinic 3 receptor binding assay ([3H]NMS competition, SPA), single concentration 1 μM
- Experimental conditions: 1 μM compound; % inhibition specific [3H]-NMS binding
Measure: inhibition at 1 µM (%)

Compound: Cc1ccccc1OCC(=O)N1CCOC2(CCN(Cc3cccc(CCOCCC(=O)N(CCNCCc4ccc(O)c5c4OCC(=O)N5)C4CCCCC4)c3)CC2)C1
Recorded value: 97
//
Compound: CC(C)(C)C(=O)N1CCOC2(CCN(Cc3cccc(CCOCCC(=O)N(CCNCCc4ccc(O)c5c4OCC(=O)N5)C4CCCCC4)c3)CC2)C1
Recorded value: 99
//
Compound: COC(C(=O)N1CCOC2(CCN(Cc3cccc(CCOCCC(=O)N(CCNCCc4ccc(O)c5c4OCC(=O)N5)C4CCCCC4)c3)CC2)C1)c1ccccc1 (stereo not drawn)
Recorded value: 96
//
Compound: Cc1ccccc1CC(=O)N1CCOC2(CCN(Cc3cccc(CCOCCC(=O)N(CCNCCc4ccc(O)c5c4OCC(=O)N5)C4CCCCC4)c3)CC2)C1
Recorded value: 100
//
Compound: Cc1nc2cc(C(=O)N3CCOC4(CCN(Cc5cccc(CCOCCC(=O)N(CCNCCc6ccc(O)c7c6OCC(=O)N7)C6CCCCC6)c5)CC4)C3)ccc2[nH]1
Recorded value: 99
//
Compound: O=C1COc2c(CCNCCN(C(=O)CCOCCc3cccc(CN4CCC5(CC4)CN(C(=O)c4n[nH]c6ccccc46)CCO5)c3)C3CCCCC3)ccc(O)c2N1
Recorded value: 101
//
Compound: O=C1COc2c(CCNCCN(C(=O)CCOCCc3cccc(CN4CCC5(CC4)CN(C(=O)COCc4nc6ccccc6s4)CCO5)c3)C3CCCCC3)ccc(O)c2N1
Recorded value: 101
//
Compound: O=C1COc2c(CCNCCN(C(=O)CCOCCc3cccc(CN4CCC5(CC4)CN(C(=O)Cc4ccccc4F)CCO5)c3)C3CCCCC3)ccc(O)c2N1
Recorded value: 101
//
Compound: O=C1COc2c(CCNCCN(C(=O)CCOCCc3cccc(CN4CCC5(CC4)CN(C(=O)Cn4cnc6ccccc64)CCO5)c3)C3CCCCC3)ccc(O)c2N1
Recorded value: 93
//
Compound: O=C1COc2c(CCNCCN(C(=O)CCOCCc3cccc(CN4CCC5(CC4)CN(C(=O)c4ccc6cccnc6n4)CCO5)c3)C3CCCCC3)ccc(O)c2N1
Recorded value: 100
//
Compound: O=C1COc2c(CCNCCN(C(=O)CCOCCc3cccc(CN4CCC5(CC4)CN(C(=O)C(O)c4ccccc4Cl)CCO5)c3)C3CCCCC3)ccc(O)c2N1 (stereo not drawn)
Recorded value: 99
//
Compound: O=C1COc2c(CCNCCN(C(=O)CCOCCc3cccc(CN4CCC5(CC4)CN(C(=O)CCCOCc4ccccc4)CCO5)c3)C3CCCCC3)ccc(O)c2N1
Recorded value: 97

* * *

human muscarinic acetylcholine M3 receptor (Homo sapiens): reported IC50 for various compounds.
Measure: IC50 (nM)

Compound: CCN(CCNCCc1ccc(O)c2c1OCC(=O)N2)C(=O)CCOCCc1cccc(CN2CCC3(CC2)CN(C(=O)c2csc(C(C)C)n2)CCO3)c1F [Example 15, ditrifluoroacetate]
IC50 / nM: 0.398

P: CCN(CCNCCc1ccc(O)c2[nH]c(=O)sc12)C(=O)CCOCCc1ccc(OCCCN2CCC3(CC2)CN(C(=O)c2csc(C(C)C)n2)CCO3)cc1 [Example 62, ditrifluoroacetate]
Q: Cc1nc(C(=O)N2CCOC3(CCN(Cc4ccc(CCOCCC(=O)N(CCNCCc5ccc(O)c6c5OCC(=O)N6)C5CCCCC5)cc4)CC3)C2)cs1 [Example 45, ditrifluoroacetate]
R: CCc1nc(C(=O)N2CCOC3(CCN(CCc4ccc(CCOCCC(=O)N(CCCCCO)CCNCCc5ccc(O)c6[nH]c(=O)sc56)cc4)CC3)C2)cs1 [Example 75, diformate]
S: CCCc1cc(C(=O)N2CCOC3(CCN(Cc4cccc(CCOCCC(=O)N(CCNCCc5ccc(O)c6c5OCC(=O)N6)C5CCCCC5)c4)CC3)C2)cs1
### Prompt Hey, quick one: sort these by IC50, low to high? Labels, ranked as asked.
### Response S, R, P, Q

* * *

- Study system: Adrenergic β2 (Homo sapiens, UniProt P07550)
- Construct: Adherent H292 cells are removed from tissue culture flasks by treatment with Accutase™ cell detachment solution; endogenous in cells; host or cells: H292 cells
- Protocol: Adrenergic β2 mediated cAMP production in H292 cells (AlphaScreen), concentration response
- Assay type: cell-based
- Experimental conditions: 60 min, 300 μM rolipram, read-out: β2 pEC50 (converted)
Measure: EC50 (nM)

Molecule: CCc1nc(C(=O)N2CCOC3(CCN(Cc4cccc(CCOCCC(=O)N(CC)CCNCCc5ccc(O)c6[nH]c(=O)sc56)c4Cl)CC3)C2)cs1 [Example 26, ditrifluoroacetate]
EC50, nM: 7.94

Molecule: Cc1ccc(C(=O)N2CCOC3(CCN(Cc4cccc(CCOCCC(=O)N(CCNCCc5ccc(O)c6c5OCC(=O)N6)C5CCCCC5)c4)CC3)C2)s1
EC50, nM: 100

Molecule: Cc1nc(C(=O)N2CCOC3(CCN(CCc4ccc(CCOCCC(=O)N(CCNCCc5ccc(O)c6c5OCC(=O)N6)C5CCCCCC5)cc4)CC3)C2)cs1 [Example 5, ditrifluoroacetate]
EC50, nM: 20

I: CCCCN(CCNCCc1ccc(O)c2c1OCC(=O)N2)C(=O)CCOCCc1cccc(CN2CCC3(CC2)CN(C(=O)c2csc(CC)n2)CCO3)c1Cl [Example 32, ditrifluoroacetate]
II: CCc1nc(C(=O)N2CCOC3(CCN(CCc4ccc(CCOCCC(=O)N(CCCCCCO)CCNCCc5ccc(O)c6[nH]c(=O)sc56)cc4)CC3)C2)cs1 [Example 76, diformate]
### Prompt Input pair: I , II . Output: entry with lower EC50. // output: label of the selected item
### Response I
(I: 15.8 nM, II: 50.1 nM)
